Quick reference: SK-BR3 TGI of the listed items.
- Test system: SK-BR-3
- PROCEDURE SUMMARY: Inhibition of cells growth by colorimetric assay (SRB), SK-BR-3
- Format: cell-based
- EXPERIMENTAL CONTEXT: SK-BR3; SRB, 48 hours exposure

{"columns": ["COMPOUND", "SK-BR3 TGI"],
 "data": [
  ["COc1cc2c(cc1OC)[C@@]1(CS[C@@H]3c4c(OC(C)=O)c(C)c5c(c4[C@H](COC1=O)N1C3[C@H]3c4c(cc(C)c(OC)c4OC)C[C@@H]([C@@H]1O)N3C)OCO5)NCC2 (stereo partly shown)", "4.08E-08"]
]}

Give its SK-BR3 TGI value. Item: COC1=C(C)C(=O)C2=C(C1=O)[C@@H]1C3[C@@H]4SC[C@]5(NCCc6cc(O)c(OC)cc65)C(=O)OC[C@@H](c5c6c(c(C)c(OC(C)=O)c54)OCO6)N3[C@@H](O)[C@H](C2)N1C (stereo partly shown)
6.44E-09

Give its SK-BR3 TGI value. Item: C=COC(=O)N1CCc2cc(O)c(OC)cc2[C@@]12CS[C@@H]1c3c(OC(C)=O)c(C)c4c(c3[C@H](COC2=O)N2C1[C@H]1c3c(cc(C)c(OC)c3O)C[C@@H]([C@@H]2O)N1C)OCO4 (stereo partly shown)
7.62E-08

Give its SK-BR3 TGI value. Item: COc1cc2c(cc1OC(=O)Cc1cc(=O)oc3cc(N(C)C)ccc13)CCN[C@]21CS[C@@H]2c3c(OC(C)=O)c(C)c4c(c3[C@H](COC1=O)N1C2[C@H]2c3c(cc(C)c(OC)c3OC(=O)Cc3cc(=O)oc5cc(N(C)C)ccc35)C[C@@H]([C@@H]1O)N2C)OCO4 (stereo partly shown) [Compound 77]
2.04E-09
